biological target: Sphingosine 1-phosphate receptor 3 (Homo sapiens); experiment: S1P3 receptor agonists, SAR follow-up, cell-based, fluorescence, synthesized compounds (AID 540349); conditions: S1P3-expressing cells, agonist fluorescence read-out; run 3
The source made the active and inactive calls. How the calls were made is not given here.
readoutType: EC50

Give EC50 for this entry on Sphingosine 1-phosphate receptor 3 (Homo sapiens): "CCOc1ccc(-c2nc(C(=O)N(C3CCCCC3)C3CCCCC3)co2)cc1OCC" 8.13 µM

Give EC50 for this entry on Sphingosine 1-phosphate receptor 3 (Homo sapiens): "O=C(c1cc(C2CC2)on1)N(C1CCCCC1)C1CCOCC1" 3.05 µM

Give EC50 for this entry on Sphingosine 1-phosphate receptor 3 (Homo sapiens): "O=C(c1cc(C2CC2)on1)N(CC1CCCCC1)C1CCCCC1" 1.73 µM

Give EC50 for this entry on Sphingosine 1-phosphate receptor 3 (Homo sapiens): "O=C(c1noc2ccccc12)N(C1CCCCC1)C1CCCCC1" > 50 µM (inactive)

Give EC50 for this entry on Sphingosine 1-phosphate receptor 3 (Homo sapiens): "COc1ccc(-c2cc(C(=O)N(C3CCCCC3)C3CCCCC3)no2)cc1OC" > 50 µM (inactive)

Give EC50 for this entry on Sphingosine 1-phosphate receptor 3 (Homo sapiens): "O=C(c1cc(C2CC2)on1)N(Cc1ccccc1)c1ccccn1" 5.23 µM

Give EC50 for this entry on Sphingosine 1-phosphate receptor 3 (Homo sapiens): "O=C(c1cc(C2CC2)on1)N(C1CCCCC1)C1CCCC1" 1.06 µM

Give EC50 for this entry on Sphingosine 1-phosphate receptor 3 (Homo sapiens): "O=C(c1cc(C2CC2)on1)N(Cc1ccccc1)Cc1ccccc1" > 50 µM (inactive)

Give EC50 for this entry on Sphingosine 1-phosphate receptor 3 (Homo sapiens): "O=C(c1cc(-c2ccccc2)on1)N(C1CCCCC1)C1CCCCC1" 0.0589 µM

Give EC50 for this entry on Sphingosine 1-phosphate receptor 3 (Homo sapiens): "O=C(c1cc(-c2ccccc2)on1)N(C1CCCCC1)C1CCCC1" 0.472 µM

Give EC50 for this entry on Sphingosine 1-phosphate receptor 3 (Homo sapiens): "CC(C)c1cc(C(=O)N(C2CCCCC2)C2CCCCC2)no1" 0.668 µM

Give EC50 for this entry on Sphingosine 1-phosphate receptor 3 (Homo sapiens): "CCCc1cc(C(=O)N(C2CCCCC2)C2CCCC2)no1" 5.67 µM

Give EC50 for this entry on Sphingosine 1-phosphate receptor 3 (Homo sapiens): "O=C(NC1CCCCC1)c1cc(C2CC2)on1" > 50 µM (inactive)

Give EC50 for this entry on Sphingosine 1-phosphate receptor 3 (Homo sapiens): "O=C(c1cc(C2CC2)on1)N(Cc1ccccc1)c1ccccc1" 5.25 µM

Give EC50 for this entry on Sphingosine 1-phosphate receptor 3 (Homo sapiens): "CCCc1cc(C(=O)NC2CCCCC2)no1" > 50 µM (inactive)

Give EC50 for this entry on Sphingosine 1-phosphate receptor 3 (Homo sapiens): "CC(C)Cc1cc(C(=O)N(C2CCCCC2)C2CCCCC2)no1" 1.26 µM

Give EC50 for this entry on Sphingosine 1-phosphate receptor 3 (Homo sapiens): "O=C(c1ccc(C2CC2)o1)N(C1CCCCC1)C1CCCCC1" > 50 µM (inactive)

Give EC50 for this entry on Sphingosine 1-phosphate receptor 3 (Homo sapiens): "CCN(CC)C(=O)c1cc(C2CC2)on1" > 50 µM (inactive)

Give EC50 for this entry on Sphingosine 1-phosphate receptor 3 (Homo sapiens): "O=C(c1cc(C2CC2)on1)N(C1CCCCC1)C1CCCCC1" 0.112 µM

Give EC50 for this entry on Sphingosine 1-phosphate receptor 3 (Homo sapiens): "O=C(c1coc(C2CC2)n1)N(C1CCCCC1)C1CCCCC1" > 50 µM (inactive)

Give EC50 for this entry on Sphingosine 1-phosphate receptor 3 (Homo sapiens): CC1CCCCC1N(C(=O)c1cc(C2CC2)on1)C1CCCCC1C (configuration not stated) 0.2 µM
